biological target: p38a activated, mitogen-activated protein kinase-activated protein kinase 2 (MAPKAP-K2 or MK2) enzyme (Homo sapiens (Human)); assay: MK2 Omnia continuous-read kinase assay for compound potency; conditions: [MK-2]=0.4 nM, [ATP]=10 μM, [ST3-Sox]=10 μM; room temperature
Sequence (P49137 whole entry): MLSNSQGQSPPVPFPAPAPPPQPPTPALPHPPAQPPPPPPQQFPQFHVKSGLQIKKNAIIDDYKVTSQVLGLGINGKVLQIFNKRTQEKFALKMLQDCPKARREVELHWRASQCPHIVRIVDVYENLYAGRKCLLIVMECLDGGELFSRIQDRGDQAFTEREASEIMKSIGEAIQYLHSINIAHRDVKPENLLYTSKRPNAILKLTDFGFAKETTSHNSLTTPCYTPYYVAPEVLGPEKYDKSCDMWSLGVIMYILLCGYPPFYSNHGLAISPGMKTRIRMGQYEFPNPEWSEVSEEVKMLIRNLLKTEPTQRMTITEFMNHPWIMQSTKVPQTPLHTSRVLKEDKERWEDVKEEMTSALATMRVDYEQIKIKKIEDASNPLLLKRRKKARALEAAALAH
Measured parameter: IC50 (nM)
A number alone suffices; assume nM.

As a guide, the following entries are already answered.
[
  {
    "Molecule smiles": "C[C@@H]1CNc2c(sc3ccc4nc(-c5nc(Cl)cc(N6CCN(C)CC6)n5)ccc4c23)C(=O)N1",
    "Unit name": "nM",
    "IC50": 440
  },
  {
    "Molecule smiles": "C[C@@H]1CNc2c(sc3ccc4nc(-c5ccnc(Cl)n5)ccc4c23)C(=O)N1",
    "Unit name": "nM",
    "IC50": 75
  },
  {
    "Molecule smiles": "CC#Cc1ncc(F)c(-c2ccc3c(ccc4sc5c(c43)NC[C@@H](C)NC5=O)n2)n1",
    "Unit name": "nM",
    "IC50": 1000
  }
]

API: the following record is the query input.
Input line: Fill in IC50 for record `C=Cc1ncc(F)c(-c2ccc3c(ccc4sc5c(c43)NC[C@@H](C)NC5=O)n2)n1`
Output line: 133
